This listing pairs molecules with measured pest or weed control at 200 ppm.
Test system: Spodoptera littoralis
experiment-notes: Spodoptera littoralis (Egyptian Cotton Leafworm) cotton leaf disc spray test
Type: in vivo
condition-info: foliar, 72 h, 200 ppm spray on cotton leaf discs, L1 larvae, mortality, feeding behavior, growth regulation 3 DAT

Example entries and their recorded answers appear below.
{"columns": ["molecule", "assayed-target", "pest or weed control at 200 ppm"],
 "data": [
  ["COc1c(NC(=O)c2ccc(Br)cc2C)cccc1C(=O)Nc1c(Cl)cc(C(F)(C(F)(F)F)C(F)(F)C(F)(F)F)cc1Br (centres unmarked) [B138]", "Spodoptera littoralis", "≥ 80%"],
  ["COc1c(NC(=O)c2ccc([N+](=O)[O-])cc2)cccc1C(=O)Nc1c(C)cc(C(F)(C(F)(F)F)C(F)(F)F)cc1C [K2]", "Spodoptera littoralis", "≥ 80%"],
  ["COc1c(NC(=O)c2ccc(Br)c(C)c2)cccc1C(=O)Nc1c(Cl)cc(C(F)(C(F)(F)F)C(F)(F)C(F)(F)F)cc1Br (centres unmarked) [B65]", "Spodoptera littoralis", "≥ 80%"],
  ["COc1c(NC(=O)c2ccccc2)cccc1C(=O)Nc1c(Cl)cc(C(F)(C(F)(F)F)C(F)(F)C(F)(F)F)cc1Cl (centres unmarked) [C18]", "Spodoptera littoralis", "≥ 80%"],
  ["COc1c(NC(=O)c2cc([N+](=O)[O-])ccc2Cl)cccc1C(=O)Nc1c(Cl)cc(C(F)(C(F)(F)F)C(F)(F)C(F)(F)F)cc1Br (centres unmarked) [B62]", "Spodoptera littoralis", "≥ 80%"],
  ["COc1c(NC(=O)c2cc(Br)ccc2Cl)cccc1C(=O)Nc1c(Cl)cc(C(F)(C(F)(F)F)C(F)(F)C(F)(F)F)cc1Br (centres unmarked) [B83]", "Spodoptera littoralis", "≥ 80%"],
  ["COc1c(NC(=O)c2ccc(F)cc2F)cccc1C(=O)Nc1c(Cl)cc(C(F)(C(F)(F)F)C(F)(F)C(F)(F)F)cc1Cl (centres unmarked) [C23]", "Spodoptera littoralis", "≥ 80%"],
  ["COc1c(NC(=O)c2ncc(Cl)cc2Cl)cccc1C(=O)Nc1c(Cl)cc(C(F)(C(F)(F)F)C(F)(F)C(F)(F)F)cc1Br (centres unmarked) [B185]", "Spodoptera littoralis", "≥ 80%"],
  ["COc1c(NC(=O)c2ocnc2C)cccc1C(=O)Nc1c(Cl)cc(C(F)(C(F)(F)F)C(F)(F)C(F)(F)F)cc1Br (centres unmarked) [B94]", "Spodoptera littoralis", "≥ 80%"],
  ["COc1c(NC(=O)c2c(F)cc(F)cc2F)cccc1C(=O)Nc1c(C)cc(C(F)(C(F)(F)F)C(F)(F)C(F)(F)F)cc1C (centres unmarked) [F25]", "Spodoptera littoralis", "≥ 80%"]
]}

Pending molecule:
## Task Fill blank: measured pest or weed control at 200 ppm of the molecule COc1c(NC(=O)c2ccc(C#N)cc2C)cccc1C(=O)Nc1c(Cl)cc(C(F)(C(F)(F)F)C(F)(F)C(F)(F)F)cc1Br (centres unmarked) [B1] is ____.
## Result ≥ 80%

====

System: Heliothis virescens
experiment-notes: Heliothis virescens (Tobacco Budworm) egg test on artificial diet
Assay type: in vivo
condition-info: 96 h, 200 ppm (concentration in well 18 ppm), eggs 0-24 h old on artificial diet, 4 days, egg mortality, larval mortality, growth regulation
assay-metric: pest or weed control at 200 ppm

{"columns": ["compound", "assay-metric", "reported-measurement"],
 "data": [
  ["COc1c(NC(=O)c2ccc(OC(F)(F)F)cc2)cccc1C(=O)Nc1c(Cl)cc(C(F)(C(F)(F)F)C(F)(F)C(F)(F)F)cc1Br (stereo not shown)", "pest or weed control at 200 ppm", "≥ 80%"],
  ["COc1c(NC(=O)c2csnn2)cccc1C(=O)Nc1c(Cl)cc(C(F)(C(F)(F)F)C(F)(F)C(F)(F)F)cc1Br (stereo not shown)", "pest or weed control at 200 ppm", "≥ 80%"],
  ["COc1c(NC(=O)c2ccc(F)cc2F)cccc1C(=O)Nc1c(Cl)cc(C(F)(C(F)(F)F)C(F)(F)C(F)(F)F)cc1Cl (stereo not shown)", "pest or weed control at 200 ppm", "≥ 80%"],
  ["COc1cc(C(=O)Nc2cccc(C(=O)Nc3c(Cl)cc(C(F)(C(F)(F)F)C(F)(F)C(F)(F)F)cc3Br)c2OC)cc(Cl)n1 (stereo not shown)", "pest or weed control at 200 ppm", "≥ 80%"],
  ["COc1c(NC(=O)c2ccc(F)cc2)cccc1C(=O)Nc1c(Cl)cc(C(F)(C(F)(F)F)C(F)(F)F)cc1Cl", "pest or weed control at 200 ppm", "≥ 80%"],
  ["COc1c(NC(=O)c2ccc([N+](=O)[O-])c(C)c2)cccc1C(=O)Nc1c(Cl)cc(C(F)(C(F)(F)F)C(F)(F)C(F)(F)F)cc1Br (stereo not shown)", "pest or weed control at 200 ppm", "≥ 80%"]
]}

Pending compound:
## Task Fill blank: measured pest or weed control at 200 ppm of the compound COc1c(NC(=O)c2csnc2C)cccc1C(=O)Nc1c(Cl)cc(C(F)(C(F)(F)F)C(F)(F)C(F)(F)F)cc1Br (stereo not shown) is ____.
## Result ≥ 80%

====

Test system: Spodoptera littoralis
experiment-notes: Spodoptera littoralis (Egyptian Cotton Leafworm) cotton leaf disc spray test
Assay type: in vivo
condition-info: foliar, 72 h, 200 ppm spray on cotton leaf discs, L1 larvae, mortality, feeding behavior, growth regulation 3 DAT
assay-metric: pest or weed control at 200 ppm

Example entries and their recorded answers appear below.
{"columns": ["molecule", "pest or weed control at 200 ppm"],
 "data": [
  ["COc1c(NC(=O)c2sc(Cl)nc2C)cccc1C(=O)Nc1c(Cl)cc(C(F)(C(F)(F)F)C(F)(F)C(F)(F)F)cc1Br (centres unmarked) [B105]", "≥ 80%"],
  ["COc1c(NC(=O)c2cc(F)c(C#N)cc2F)cccc1C(=O)Nc1c(Cl)cc(C(F)(C(F)(F)F)C(F)(F)F)cc1Cl [E24]", "≥ 80%"],
  ["COc1c(NC(=O)c2sc(C(F)(F)F)nc2C)cccc1C(=O)Nc1c(Cl)cc(C(F)(C(F)(F)F)C(F)(F)C(F)(F)F)cc1Br (centres unmarked) [B104]", "≥ 80%"]
]}

## Task Fill blank: measured pest or weed control at 200 ppm of the molecule COc1c(NC(=O)c2c(F)cc(F)cc2F)cccc1C(=O)Nc1c(Cl)cc(C(F)(C(F)(F)F)C(F)(F)C(F)(F)F)cc1Br (centres unmarked) [B189] is ____.
## Result ≥ 80%

## Task Thanks! And COc1c(NC(=O)c2ccc(C#N)cc2C)cccc1C(=O)Nc1c(C)cc(C(F)(C(F)(F)F)C(F)(F)F)cc1C [K4] ?
## Result ≥ 80%

## Task Thanks! And COc1c(NC(=O)c2cc(C(F)(F)F)n(C)n2)cccc1C(=O)Nc1c(Cl)cc(C(F)(C(F)(F)F)C(F)(F)C(F)(F)F)cc1Br (centres unmarked) [B92] ?
## Result ≥ 80%

## Task Thanks! And COc1c(NC(=O)c2ccccc2Cl)cccc1C(=O)Nc1c(Cl)cc(C(F)(C(F)(F)F)C(F)(F)C(F)(F)F)cc1Br (centres unmarked) [B5] ?
## Result ≥ 80%

## Task Thanks! And COc1c(NC(=O)c2ccc(F)cc2C)cccc1C(=O)Nc1c(Cl)cc(C(F)(C(F)(F)F)C(F)(F)C(F)(F)F)cc1Cl (centres unmarked) [C9] ?
## Result ≥ 80%

## Task Thanks! And COc1c(NC(=O)c2cccc(Cl)c2Cl)cccc1C(=O)Nc1c(Cl)cc(C(F)(C(F)(F)F)C(F)(F)C(F)(F)F)cc1Br (centres unmarked) [B184] ?
## Result ≥ 80%

## Task Thanks! And COc1c(NC(=O)c2c(F)cc(F)cc2F)cccc1C(=O)Nc1c(Cl)cc(C(F)(C(F)(F)F)C(F)(F)F)cc1Br [G3] ?
## Result ≥ 80%

## Task Thanks! And COc1c(NC(=O)c2cnccc2C(F)(F)F)cccc1C(=O)Nc1c(Cl)cc(C(F)(C(F)(F)F)C(F)(F)C(F)(F)F)cc1Br (centres unmarked) [B126] ?
## Result ≥ 80%

## Task Thanks! And COc1c(NC(=O)c2ncccc2C(F)(F)F)cccc1C(=O)Nc1c(Cl)cc(C(F)(C(F)(F)F)C(F)(F)C(F)(F)F)cc1Br (centres unmarked) [B188] ?
## Result ≥ 80%

## Task Thanks! And COc1c(NC(=O)c2cccc(C#N)c2)cccc1C(=O)Nc1c(C)cc(C(F)(C(F)(F)F)C(F)(F)C(F)(F)F)cc1C (centres unmarked) [F21] ?
## Result ≥ 80%

## Task Thanks! And COc1c(NC(=O)c2ccc(-c3ccccn3)s2)cccc1C(=O)Nc1c(Cl)cc(C(F)(C(F)(F)F)C(F)(F)C(F)(F)F)cc1Br (centres unmarked) [B48] ?
## Result ≥ 80%
